pIC50 values by entry
- System: MCF-7 cells
- ASSAY OVERVIEW: Cytotoxic effects, concentration dependent test (IC50), crystal violet staining
- Format: cell-based
- TEST PARAMETERS: Homo sapiens, MCF7; estrogen receptor positive MCF-7 cells; incubation of 72 h
On this scale, pIC50 is minus log10 of a concentration expressed in M (mol/L).

CCCc1c(-c2ccc(O)cc2Cl)cc(-c2ccc(O)cc2)n1-c1ccc(O)cc1: 4.71
Oc1ccc(-c2cc(-c3ccc(O)cc3Cl)[nH]c2-c2ccc(Cl)cc2O)cc1: 4.98
Cc1c(-c2ccc(O)cc2Cl)cc(-c2ccc(O)cc2)n1-c1ccc(O)cc1: 4.63

For the next question, use this compound.
Provide only the value of recorded pIC50 for Oc1ccc(-c2cc(-c3ccc(O)cc3Cl)[nH]c2-c2ccc(O)cc2Cl)cc1 5.12

Values compiled from patent EP1889617A1.
